Reported residual activity values for the following compounds.
Target or test system: ADRBK2 (human) (UniProt P35626)
Sequence (P35626 whole entry, looked up): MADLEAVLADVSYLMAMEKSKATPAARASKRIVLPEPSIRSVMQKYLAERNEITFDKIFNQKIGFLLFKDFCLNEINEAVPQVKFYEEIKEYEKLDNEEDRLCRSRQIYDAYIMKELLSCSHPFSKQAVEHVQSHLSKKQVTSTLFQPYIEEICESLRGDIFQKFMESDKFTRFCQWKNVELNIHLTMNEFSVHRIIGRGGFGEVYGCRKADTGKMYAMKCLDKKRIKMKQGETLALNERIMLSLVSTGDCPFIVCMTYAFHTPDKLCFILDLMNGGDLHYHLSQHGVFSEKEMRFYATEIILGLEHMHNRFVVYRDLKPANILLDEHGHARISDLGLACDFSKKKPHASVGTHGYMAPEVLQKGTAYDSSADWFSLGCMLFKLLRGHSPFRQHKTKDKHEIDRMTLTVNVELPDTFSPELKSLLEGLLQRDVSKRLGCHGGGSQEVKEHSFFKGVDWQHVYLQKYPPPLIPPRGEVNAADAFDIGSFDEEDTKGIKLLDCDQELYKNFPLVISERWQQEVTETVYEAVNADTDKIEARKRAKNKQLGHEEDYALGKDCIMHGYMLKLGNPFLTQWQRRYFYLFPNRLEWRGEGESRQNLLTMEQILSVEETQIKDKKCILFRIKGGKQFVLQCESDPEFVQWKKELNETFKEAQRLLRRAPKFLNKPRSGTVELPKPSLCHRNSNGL
Protocol: radiometric filter-binding kinase assay, Kinase HotSpot
Conditions: compound 0.5 µM; ATP 10 µM

Compound: N#CC(C#N)=C(N)/C(C#N)=C/c1ccc(O)cc1
Value units: %
residual activity: 96.7
//
Compound: Nc1ncnc2[nH]nc(Nc3ccc(F)cc3)c12
Value units: %
residual activity: 102
//
Compound: CO[C@H]1CC2CC[C@@H](C)[C@@](O)(O2)C(=O)C(=O)N2CCCC[C@H]2C(=O)OC([C@H](C)C[C@@H]2CC[C@@H](O)[C@H](OC)C2)CC(=O)[C@H](C)/C=C(\C)[C@@H](O)[C@@H](OC)C(=O)[C@H](C)C[C@H](C)/C=C/C=C/C=C/1C (some centres undefined)
Value units: %
residual activity: 98
//
Compound: CC(C)N(CCC(=O)c1ccc2ccccc2c1)Cc1ccccc1
Value units: %
residual activity: 88.9
